Would you mind telling me the reported ELISA reading of each entry?
# Assay System: T1, soluble KDR extracellular domain (ECD) (Calbiochem) (human, UniProt P35968 20-764)
# T1 construct: extracellular domain; Bought protein; also called KDR-ECD; VEGF Receptor 2 D1-7, Cat. #676490
# T1 sequence (P35968 20-764): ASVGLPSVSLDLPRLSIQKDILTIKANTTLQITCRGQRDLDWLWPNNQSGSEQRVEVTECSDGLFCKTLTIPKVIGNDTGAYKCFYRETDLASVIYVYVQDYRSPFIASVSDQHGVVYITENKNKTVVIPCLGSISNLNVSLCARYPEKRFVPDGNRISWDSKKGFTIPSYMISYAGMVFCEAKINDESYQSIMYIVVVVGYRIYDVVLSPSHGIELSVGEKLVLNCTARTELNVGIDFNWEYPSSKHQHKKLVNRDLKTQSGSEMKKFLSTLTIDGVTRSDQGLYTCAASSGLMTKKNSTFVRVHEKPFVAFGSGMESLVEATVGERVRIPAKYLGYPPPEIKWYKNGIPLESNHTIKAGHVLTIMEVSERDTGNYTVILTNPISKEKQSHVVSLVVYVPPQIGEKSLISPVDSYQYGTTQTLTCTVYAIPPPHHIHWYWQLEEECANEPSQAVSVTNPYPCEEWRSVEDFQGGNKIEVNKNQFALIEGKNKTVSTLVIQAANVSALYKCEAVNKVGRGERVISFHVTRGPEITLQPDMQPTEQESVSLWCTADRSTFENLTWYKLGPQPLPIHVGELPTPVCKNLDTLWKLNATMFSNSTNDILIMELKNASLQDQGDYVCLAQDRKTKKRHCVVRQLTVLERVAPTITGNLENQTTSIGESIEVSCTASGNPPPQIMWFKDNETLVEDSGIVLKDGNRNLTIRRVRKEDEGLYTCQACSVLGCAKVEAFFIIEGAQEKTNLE
# Assay Explanation: Limited Antigen ELISA, KDR coat 6.25 ng/mL, supernatant 1:25
Answers are plain numbers.

Worked cases, answers included:
32G7 (antibody, V domains shown, Fully human mAb from XenoMouse hybridoma, tested as hybridoma supernatant) VH: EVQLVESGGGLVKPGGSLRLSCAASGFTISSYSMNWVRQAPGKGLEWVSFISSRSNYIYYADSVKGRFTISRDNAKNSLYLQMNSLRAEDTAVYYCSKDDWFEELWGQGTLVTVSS VL: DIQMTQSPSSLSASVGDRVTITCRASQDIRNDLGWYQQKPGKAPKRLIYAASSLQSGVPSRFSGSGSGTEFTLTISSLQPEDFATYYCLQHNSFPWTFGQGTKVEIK | 0.08
1G6 (antibody, V domains shown, Fully human mAb from XenoMouse hybridoma, tested as hybridoma supernatant) VH: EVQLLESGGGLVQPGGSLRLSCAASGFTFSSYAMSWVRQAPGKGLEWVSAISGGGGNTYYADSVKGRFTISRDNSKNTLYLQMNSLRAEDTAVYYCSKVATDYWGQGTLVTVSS VL: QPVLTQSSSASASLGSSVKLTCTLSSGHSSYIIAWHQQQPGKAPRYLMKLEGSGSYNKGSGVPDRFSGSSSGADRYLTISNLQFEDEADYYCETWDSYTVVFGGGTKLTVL | 0.2

Proceeding to the next binder to report its ELISA reading.
Prompt: // returns reported ELISA reading for input 22B8 (antibody, V domains shown, Fully human mAb from XenoMouse hybridoma, tested as hybridoma supernatant) VH: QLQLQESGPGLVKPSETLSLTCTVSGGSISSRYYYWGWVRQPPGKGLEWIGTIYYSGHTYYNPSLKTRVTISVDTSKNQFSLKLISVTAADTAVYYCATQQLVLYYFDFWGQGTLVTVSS VL: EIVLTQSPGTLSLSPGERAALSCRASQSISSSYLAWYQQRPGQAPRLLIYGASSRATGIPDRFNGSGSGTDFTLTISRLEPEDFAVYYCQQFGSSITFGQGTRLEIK
Completion: 0.42
